- Test system: CYP1A2
- ASSAY TEXT: CYP induction in human hepatocytes, CYP1A2 mRNA
- Type: in vitro ADME
- EXPERIMENTAL CONDITIONS: plated human hepatocytes, Donor 2, read-out: Mean Fold Induction of mRNA at 1× 10^−4 M
MEASUREMENT NAME: fold induction at 2 days

• Nc1nc(-c2ccccc2)nc2[nH]nc(Nc3ccc(C(F)(F)F)cc3)c12 = 0.39

###

- ASSAY TEXT: Apparent permeability across Caco-2 cell monolayers
- EXPERIMENTAL CONDITIONS: human, Caco-2, pH 7.4
MEASUREMENT NAME: Papp at 120 min, 0.8 µCi/mL (×10⁻⁶ cm/s)

- OC[C@@H](O)[C@@H](O)[C@H](O)[C@H](O)CO: 0.21

###

- SYSTEM NAME: BCRP (Homo sapiens, UniProt Q9UNQ0)
- ASSAY TEXT: Fluorometric transporter inhibition, BCRP-CHO
- Assay type: in vitro ADME
- EXPERIMENTAL CONDITIONS: Hoechst 33342 substrate
pIC50: −log10 of the molar value.
MEASUREMENT NAME: pIC50

- Nc1nc(-c2ccccc2)nc2[nH]nc(Nc3ccc(C(F)(F)F)cc3)c12: 5.77

###

- SYSTEM NAME: OATP1B1 (Homo sapiens)
- Construct: expressed in transfected cells; host or cells: CHO
- Sequence (Q9Y6L6 whole entry): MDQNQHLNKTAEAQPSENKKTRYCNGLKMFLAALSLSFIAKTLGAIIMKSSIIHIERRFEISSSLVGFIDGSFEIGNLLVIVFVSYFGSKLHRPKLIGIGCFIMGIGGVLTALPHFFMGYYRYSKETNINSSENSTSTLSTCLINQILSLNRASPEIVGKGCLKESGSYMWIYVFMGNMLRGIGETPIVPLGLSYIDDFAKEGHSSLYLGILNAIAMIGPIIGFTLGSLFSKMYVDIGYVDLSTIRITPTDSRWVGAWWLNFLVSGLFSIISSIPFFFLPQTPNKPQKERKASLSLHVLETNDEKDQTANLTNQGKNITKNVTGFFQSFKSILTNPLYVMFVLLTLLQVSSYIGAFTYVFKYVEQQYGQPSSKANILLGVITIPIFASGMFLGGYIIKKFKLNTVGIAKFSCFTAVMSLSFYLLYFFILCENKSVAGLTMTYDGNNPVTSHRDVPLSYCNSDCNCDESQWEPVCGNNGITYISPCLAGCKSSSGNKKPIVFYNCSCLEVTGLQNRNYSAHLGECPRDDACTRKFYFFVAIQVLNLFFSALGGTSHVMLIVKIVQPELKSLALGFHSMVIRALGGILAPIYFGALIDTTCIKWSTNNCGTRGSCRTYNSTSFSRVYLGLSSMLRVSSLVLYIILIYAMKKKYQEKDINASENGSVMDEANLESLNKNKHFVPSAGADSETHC
- ASSAY TEXT: Fluorometric transporter inhibition, OATP1B1-CHO
- Type: in vitro ADME
- EXPERIMENTAL CONDITIONS: FMTX substrate, NC: not calculable
pIC50: −log10 of the molar value.
MEASUREMENT NAME: pIC50

• CO[C@H]1/C=C/O[C@@]2(C)Oc3c(C)c(O)c4c(O)c(c(/C=N/N5CCN(C)CC5)c(O)c4c3C2=O)NC(=O)/C(C)=C\C=C\[C@H](C)[C@H](O)[C@@H](C)[C@@H](O)[C@@H](C)[C@H](OC(C)=O)[C@@H]1C = 5.66

###

- Test system: CYP1A2
- ASSAY TEXT: CYP induction in human hepatocytes, CYP1A2 mRNA
- Type: in vitro ADME
- EXPERIMENTAL CONDITIONS: plated human hepatocytes, Donor 1, read-out: Mean Fold Induction of mRNA at 1× 10^−4 M
MEASUREMENT NAME: fold induction at 2 days

* Nc1nc(-c2ccccc2)nc2[nH]nc(Nc3ccc(C(F)(F)F)cc3)c12 | 0.24

###

- SYSTEM NAME: UniProt P08684
- Sequence (P08684 2-503): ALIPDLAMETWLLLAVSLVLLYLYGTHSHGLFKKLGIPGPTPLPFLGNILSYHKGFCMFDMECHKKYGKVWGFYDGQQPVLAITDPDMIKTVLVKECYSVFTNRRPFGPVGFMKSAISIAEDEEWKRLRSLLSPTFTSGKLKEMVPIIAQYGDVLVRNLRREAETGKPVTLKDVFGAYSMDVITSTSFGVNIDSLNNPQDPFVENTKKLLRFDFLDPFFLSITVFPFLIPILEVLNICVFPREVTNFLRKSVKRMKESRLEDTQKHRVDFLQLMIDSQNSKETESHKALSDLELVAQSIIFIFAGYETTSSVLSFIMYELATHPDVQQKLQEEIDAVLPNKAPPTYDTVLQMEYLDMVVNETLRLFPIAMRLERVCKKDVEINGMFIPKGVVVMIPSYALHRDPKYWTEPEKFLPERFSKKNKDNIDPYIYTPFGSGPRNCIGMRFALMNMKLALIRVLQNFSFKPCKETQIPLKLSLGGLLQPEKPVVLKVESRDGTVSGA
- ASSAY TEXT: in vitro
- EXPERIMENTAL CONDITIONS: both, pooled human liver microsomes, pH 7.4, probe testosterone
MEASUREMENT NAME: IC50 at 10 min

- Nc1nc(-c2ccccc2)nc2[nH]nc(Nc3ccc(C(F)(F)F)cc3)c12: > 100 µM

###

- SYSTEM NAME: CYP2C9 (Homo sapiens, UniProt P11712)
- Sequence (P11712 whole entry): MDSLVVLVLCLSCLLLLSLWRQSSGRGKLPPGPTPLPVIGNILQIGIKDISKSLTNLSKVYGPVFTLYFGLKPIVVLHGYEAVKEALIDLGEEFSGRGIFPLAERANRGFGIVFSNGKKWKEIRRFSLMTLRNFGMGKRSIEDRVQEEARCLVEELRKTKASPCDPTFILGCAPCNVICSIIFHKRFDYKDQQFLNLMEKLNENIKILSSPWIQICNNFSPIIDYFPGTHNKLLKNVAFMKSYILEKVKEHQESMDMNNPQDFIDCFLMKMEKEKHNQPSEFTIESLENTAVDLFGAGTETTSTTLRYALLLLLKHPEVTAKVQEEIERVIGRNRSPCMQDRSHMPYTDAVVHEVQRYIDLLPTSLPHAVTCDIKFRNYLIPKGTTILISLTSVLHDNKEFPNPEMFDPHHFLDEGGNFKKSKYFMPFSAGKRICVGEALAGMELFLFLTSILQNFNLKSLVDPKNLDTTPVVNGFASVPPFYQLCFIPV
pIC50: −log10 of the molar value.
MEASUREMENT NAME: pIC50

• Nc1nc(-c2ccccc2)nc2[nH]nc(Nc3ccc(C(F)(F)F)cc3)c12 [SCO-201] = < 4.00

###

- Test system: CYP1A2
- ASSAY TEXT: CYP induction in human hepatocytes, CYP1A2 mRNA
- Type: in vitro ADME
- EXPERIMENTAL CONDITIONS: plated human hepatocytes, Donor 3, read-out: Mean Fold Induction of mRNA at 1× 10^−4 M
MEASUREMENT NAME: fold induction at 2 days

• Nc1nc(-c2ccccc2)nc2[nH]nc(Nc3ccc(C(F)(F)F)cc3)c12 = 0.26

###

- System: CYP3A
- ASSAY TEXT: CYP induction in human hepatocytes, CYP3A mRNA
- Assay type: in vitro ADME
- EXPERIMENTAL CONDITIONS: plated human hepatocytes, Donor 2, read-out: Mean Fold Induction of mRNA at 1× 10^−4 M
MEASUREMENT NAME: fold induction at 2 days

• Nc1nc(-c2ccccc2)nc2[nH]nc(Nc3ccc(C(F)(F)F)cc3)c12 = 0.25

###

- SYSTEM NAME: UniProtKB Q9UNQ0
- ASSAY TEXT: Pheophorbide A accumulation assay in MDCK cells
- EXPERIMENTAL CONDITIONS: flow cytometry
MEASUREMENT NAME: IC50 (µM)

* Nc1nc(-c2ccccc2)nc2[nH]nc(Nc3ccc(C(F)(F)F)cc3)c12 [SCO-201] | 0.145

###

- Test system: CYP2B6
- ASSAY TEXT: CYP induction in human hepatocytes, CYP2B6 mRNA
- Assay type: in vitro ADME
- EXPERIMENTAL CONDITIONS: plated human hepatocytes, Donor 3, read-out: Mean Fold Induction of mRNA at 1× 10^−4 M
MEASUREMENT NAME: fold induction at 2 days

* Nc1nc(-c2ccccc2)nc2[nH]nc(Nc3ccc(C(F)(F)F)cc3)c12 | 0.45

###

- SYSTEM NAME: ABCG2 (BCRP) (Homo sapiens, UniProt Q9UNQ0)
- Sequence (Q9UNQ0 1-655): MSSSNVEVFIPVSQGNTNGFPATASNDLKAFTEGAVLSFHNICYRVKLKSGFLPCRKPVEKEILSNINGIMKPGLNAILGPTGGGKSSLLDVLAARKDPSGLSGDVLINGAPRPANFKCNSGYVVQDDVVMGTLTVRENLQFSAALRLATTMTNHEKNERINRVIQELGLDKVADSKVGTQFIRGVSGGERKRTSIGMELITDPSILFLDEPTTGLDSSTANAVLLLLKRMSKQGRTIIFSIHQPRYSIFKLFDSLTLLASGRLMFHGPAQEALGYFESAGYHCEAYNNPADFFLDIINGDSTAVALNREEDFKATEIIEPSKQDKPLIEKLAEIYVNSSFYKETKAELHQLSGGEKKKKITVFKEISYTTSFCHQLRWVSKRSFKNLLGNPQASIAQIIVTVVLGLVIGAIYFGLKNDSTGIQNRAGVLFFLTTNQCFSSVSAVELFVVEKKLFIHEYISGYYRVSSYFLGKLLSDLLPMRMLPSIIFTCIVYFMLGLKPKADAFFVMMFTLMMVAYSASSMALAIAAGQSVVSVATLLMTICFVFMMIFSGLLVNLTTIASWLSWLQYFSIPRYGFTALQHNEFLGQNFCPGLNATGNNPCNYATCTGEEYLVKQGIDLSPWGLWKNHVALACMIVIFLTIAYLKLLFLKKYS
- ASSAY TEXT: Hoechst 33342 accumulation assay in MDCK-II-BCRP cells
- EXPERIMENTAL CONDITIONS: MDCK cells overexpressing BCRP, steady-state fluorescence
MEASUREMENT NAME: IC50 (nM)

- Nc1nc(-c2ccccc2)nc2[nH]nc(Nc3ccc(C(F)(F)F)cc3)c12: 175

###

- Tested on: CYP3A
- ASSAY TEXT: CYP induction in human hepatocytes, CYP3A mRNA
- Assay type: in vitro ADME
- EXPERIMENTAL CONDITIONS: plated human hepatocytes, Donor 3, read-out: Mean Fold Induction of mRNA at 1× 10^−4 M
MEASUREMENT NAME: fold induction at 2 days

- Nc1nc(-c2ccccc2)nc2[nH]nc(Nc3ccc(C(F)(F)F)cc3)c12: 0.32
